B1: Amylosucrase, Q9ZEU2 (parent)
chain: MLTPTQQVGLILQYLKTRILDIYTPEQRAGIEKSEDWRQFSRRMDTHFPKLMNELDSVYGNNEALLPMLEMLLAQAWQSYSQRNSSLKDIDIARENNPDWILSNKQVGGVCYVDLFAGDLKGLKDKIPYFQELGLTYLHLMPLFKCPEGKSDGGYAVSSYRDVNPALGTIGDLREVIAALHEAGISAVVDFIFNHTSNEHEWAQRCAAGDPLFDNFYYIFPDRRMPDQYDRTLREIFPDQHPGGFSQLEDGRWVWTTFNSFQWDLNYSNPWVFRAMAGEMLFLANLGVDILRMDAVAFIWKQMGTSCENLPQAHALIRAFNAVMRIAAPAVFFKSEAIVHPDQVVQYIGQDECQIGYNPLQMALLWNTLATREVNLLHQALTYRHNLPEHTAWVNYVRSHDDIGWTFADEDAAYLGISGYDHRQFLNRFFVNRFDGSFARGVPFQYNPSTGDCRVSGTAAALVGLAQDDPHAVDRIKLLYSIALSTGGLPLIYLGDEVGTLNDDDWSQDSNKSDDSRWAHRPRYNEALYAQRNDPSTAAGQIYQGLRHMIAVRQSNPRFDGGRLVTFNTNNKHIIGYIRNNALLAFGNFSEYPQTVTAHTLQAMPFKAHDLIGGKTVSLNQDLTLQPYQVMWLEIA

# Variants of: B1
# conditionContext: Neisseria polysaccharea; pH 7; Thermal; DSF; Tris 50 mM; structure 1G5A; whole UniProt chain shown
Kindly state change of melting temperature, mutant - wild type (higher = more stable) for each of the entries shown.
Write the answer as a number in °C, unit excluded.

Query: Item under review: H400F . Reported change of melting temperature, mutant - wild type (higher = more stable)?
Reply: -2.4

Query: Now the variant R292K
Reply: 1.6

Query: Now the variant H400E
Reply: 0.4

Query: Now the variant H195W
Reply: -5.8

Query: Now the variant H195A
Reply: -1.6

Query: Now the variant Y155N
Reply: -1

Query: Now the variant R454E
Reply: -2.2

Query: Now the variant D515I
Reply: 0.6

Query: Now the variant H400I
Reply: -0.2

Query: Now the variant H195Y
Reply: -3.2

Query: Now the variant H195L
Reply: -6.4
